Molecular target: BRD4(fl) (Homo sapiens)
Experiment: BROMOscan ligand-binding assay
Details: BRD4(full-length,short-iso.)
pKd: −log10 of the molar value.
Property Name: pKd

1. COc1cc(C#N)ccc1S(=O)(=O)Nc1ccc2c(c1)cc(C)c(=O)n2C [NI 57] : 5.31

====

Target: SMARCA2 (Homo sapiens, UniProt P51531)
Sequence (P51531 1-1572 isoform P51531-2): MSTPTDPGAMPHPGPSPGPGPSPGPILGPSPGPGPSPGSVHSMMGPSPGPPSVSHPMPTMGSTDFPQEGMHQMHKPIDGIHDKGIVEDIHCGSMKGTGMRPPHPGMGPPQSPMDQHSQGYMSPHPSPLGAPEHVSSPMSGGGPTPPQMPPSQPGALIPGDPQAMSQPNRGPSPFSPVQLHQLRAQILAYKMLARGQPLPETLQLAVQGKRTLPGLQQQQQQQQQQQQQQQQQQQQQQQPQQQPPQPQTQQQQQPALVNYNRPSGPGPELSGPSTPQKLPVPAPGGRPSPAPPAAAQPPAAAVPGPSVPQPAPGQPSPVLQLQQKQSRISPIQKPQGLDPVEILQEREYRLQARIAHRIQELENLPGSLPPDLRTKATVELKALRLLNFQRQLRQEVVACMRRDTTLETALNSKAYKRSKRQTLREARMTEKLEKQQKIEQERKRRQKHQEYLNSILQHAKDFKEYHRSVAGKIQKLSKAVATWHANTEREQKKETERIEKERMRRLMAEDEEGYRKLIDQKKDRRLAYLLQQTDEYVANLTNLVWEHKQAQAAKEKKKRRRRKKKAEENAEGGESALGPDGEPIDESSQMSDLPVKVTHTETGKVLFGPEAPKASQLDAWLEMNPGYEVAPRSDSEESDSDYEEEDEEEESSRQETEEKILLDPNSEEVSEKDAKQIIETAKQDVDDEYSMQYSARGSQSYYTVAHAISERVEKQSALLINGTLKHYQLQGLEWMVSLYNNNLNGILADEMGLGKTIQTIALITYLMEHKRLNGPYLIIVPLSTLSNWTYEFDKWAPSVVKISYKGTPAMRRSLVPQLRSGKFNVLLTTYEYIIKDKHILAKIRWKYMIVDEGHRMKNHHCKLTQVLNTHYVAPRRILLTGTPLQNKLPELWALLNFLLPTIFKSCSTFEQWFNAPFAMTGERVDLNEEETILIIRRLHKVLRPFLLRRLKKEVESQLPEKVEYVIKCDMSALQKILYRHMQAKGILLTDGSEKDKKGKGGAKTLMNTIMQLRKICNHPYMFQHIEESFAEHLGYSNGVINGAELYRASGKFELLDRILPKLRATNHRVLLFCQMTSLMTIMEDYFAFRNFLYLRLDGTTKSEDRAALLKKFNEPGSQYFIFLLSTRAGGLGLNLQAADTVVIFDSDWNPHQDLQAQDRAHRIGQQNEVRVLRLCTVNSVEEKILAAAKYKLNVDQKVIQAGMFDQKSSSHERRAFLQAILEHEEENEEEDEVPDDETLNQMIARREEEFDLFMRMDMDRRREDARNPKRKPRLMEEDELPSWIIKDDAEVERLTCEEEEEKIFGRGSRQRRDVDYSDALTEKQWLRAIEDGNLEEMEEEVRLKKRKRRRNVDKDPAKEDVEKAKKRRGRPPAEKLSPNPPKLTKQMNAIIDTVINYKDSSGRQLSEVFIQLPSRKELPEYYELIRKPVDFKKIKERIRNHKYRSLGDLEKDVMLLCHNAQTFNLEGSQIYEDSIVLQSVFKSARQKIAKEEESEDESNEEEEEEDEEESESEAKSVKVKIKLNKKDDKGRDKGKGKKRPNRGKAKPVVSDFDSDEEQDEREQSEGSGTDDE
Assay: BROMOscan ligand-binding assay
Conditions: BROMOscan, SMARCA2
Property Name: Kd (nM)

1) O=C(C=CN1[C@H]2CC[C@@H]1c1ncnc(NC3CC3)c1C2)c1ccccc1O [PFI-3 D1] : 49

====

Biological target: BRPF1 (Homo sapiens, UniProt P55201)
Sequence (P55201 628-732 limits assumed): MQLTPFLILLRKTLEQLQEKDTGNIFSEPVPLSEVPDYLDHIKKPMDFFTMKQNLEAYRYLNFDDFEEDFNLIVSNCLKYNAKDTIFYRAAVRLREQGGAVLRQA
Assay: BROMOscan ligand-binding assay
pKd: −log10 of the molar value.
Property Name: pKd

1. CCCS(=O)(=O)c1nc(NC2CC2)cc(-c2ccc3c(ccn3C3CC(C)(C)NC(C)(C)C3)c2)n1 : 5.46

====

Target: BRD3(1) (Homo sapiens, UniProt Q15059)
Sequence (Q15059 34-140 limits assumed): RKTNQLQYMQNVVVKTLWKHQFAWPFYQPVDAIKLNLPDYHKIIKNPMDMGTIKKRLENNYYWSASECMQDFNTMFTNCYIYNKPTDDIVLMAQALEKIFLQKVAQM
Test: BROMOscan ligand-binding assay
Conditions: KD, BROMOscan, BRD3(1)
Property Name: Kd (nM)

1. COc1ccc(CCc2nc3cc(-c4c(C)noc4C)ccc3n2C[C@H](C)N2CCOCC2)cc1Cl : 740

====

Biological target: UniProtKB Q15059
Test: BROMOscan ligand-binding assay
Details: KD, BROMOscan Gene Symbol BRD3(2)
// values below are reported Kd
Property Name: Kd (µM)

1. CCCOc1ccn2c(C(C)=O)cc(-c3ccccc3S(C)(=O)=O)c2c1 [GSK2801] : 13
2. CCC(=O)N1CCOc2c(cc(-c3ccc(OC)c(OC)c3)cc2OCC2CCCN(C)C2)C1 (centres unmarked) [I-CBP112] : 20

====

Target: BRDT(1,2) (Homo sapiens, UniProt Q58F21)
Assay: BROMOscan ligand-binding assay
Settings: BROMOscan, BRDT(1,2)
pKd: −log10 of the molar value.
Property Name: pKd

1) Cc1cc(=O)n(C)c2cc(N3C(=O)CC[C@H](NS(=O)(=O)CC(C)C)[C@H]3c3ccc(Cl)cc3)ccc12 : 4.68

====

Target: PRC2-EZH1 (Homo sapiens)
Construct: purchased DiscoverX BROMOscan (bromodomains); SGC in-house methyltransferase panel
Sequence (Q92800 whole entry): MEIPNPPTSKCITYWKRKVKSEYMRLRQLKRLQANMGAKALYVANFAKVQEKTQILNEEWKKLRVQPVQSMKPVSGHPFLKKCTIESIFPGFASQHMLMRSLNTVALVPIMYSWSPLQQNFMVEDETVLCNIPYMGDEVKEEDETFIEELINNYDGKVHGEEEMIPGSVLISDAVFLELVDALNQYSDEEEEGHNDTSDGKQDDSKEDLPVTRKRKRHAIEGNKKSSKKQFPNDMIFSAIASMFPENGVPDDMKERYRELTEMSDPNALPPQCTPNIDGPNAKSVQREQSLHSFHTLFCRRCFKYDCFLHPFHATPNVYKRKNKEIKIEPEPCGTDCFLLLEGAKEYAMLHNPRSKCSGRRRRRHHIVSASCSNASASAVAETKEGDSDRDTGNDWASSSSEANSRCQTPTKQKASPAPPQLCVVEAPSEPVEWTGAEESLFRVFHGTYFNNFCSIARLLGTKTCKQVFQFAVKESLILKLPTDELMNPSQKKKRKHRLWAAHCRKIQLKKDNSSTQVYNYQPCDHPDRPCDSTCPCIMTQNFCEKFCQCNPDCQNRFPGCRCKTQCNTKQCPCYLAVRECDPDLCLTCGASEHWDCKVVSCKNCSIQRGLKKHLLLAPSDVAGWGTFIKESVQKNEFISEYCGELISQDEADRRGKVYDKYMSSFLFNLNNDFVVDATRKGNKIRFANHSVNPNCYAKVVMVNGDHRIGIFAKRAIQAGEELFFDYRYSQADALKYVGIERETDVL
Sequence (O75530 whole entry partner): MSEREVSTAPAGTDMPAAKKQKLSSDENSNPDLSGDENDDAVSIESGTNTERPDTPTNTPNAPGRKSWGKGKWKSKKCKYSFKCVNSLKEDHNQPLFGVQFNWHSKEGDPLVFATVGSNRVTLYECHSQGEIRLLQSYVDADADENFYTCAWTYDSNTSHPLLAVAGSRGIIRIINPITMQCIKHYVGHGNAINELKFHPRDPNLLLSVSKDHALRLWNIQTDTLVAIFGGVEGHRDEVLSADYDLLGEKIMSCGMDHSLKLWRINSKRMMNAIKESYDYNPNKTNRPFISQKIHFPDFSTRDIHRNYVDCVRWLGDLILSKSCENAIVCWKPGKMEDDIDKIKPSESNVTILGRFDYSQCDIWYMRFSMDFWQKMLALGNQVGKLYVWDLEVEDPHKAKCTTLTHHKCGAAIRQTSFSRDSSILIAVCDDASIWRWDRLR
Sequence (Q15022 whole entry partner): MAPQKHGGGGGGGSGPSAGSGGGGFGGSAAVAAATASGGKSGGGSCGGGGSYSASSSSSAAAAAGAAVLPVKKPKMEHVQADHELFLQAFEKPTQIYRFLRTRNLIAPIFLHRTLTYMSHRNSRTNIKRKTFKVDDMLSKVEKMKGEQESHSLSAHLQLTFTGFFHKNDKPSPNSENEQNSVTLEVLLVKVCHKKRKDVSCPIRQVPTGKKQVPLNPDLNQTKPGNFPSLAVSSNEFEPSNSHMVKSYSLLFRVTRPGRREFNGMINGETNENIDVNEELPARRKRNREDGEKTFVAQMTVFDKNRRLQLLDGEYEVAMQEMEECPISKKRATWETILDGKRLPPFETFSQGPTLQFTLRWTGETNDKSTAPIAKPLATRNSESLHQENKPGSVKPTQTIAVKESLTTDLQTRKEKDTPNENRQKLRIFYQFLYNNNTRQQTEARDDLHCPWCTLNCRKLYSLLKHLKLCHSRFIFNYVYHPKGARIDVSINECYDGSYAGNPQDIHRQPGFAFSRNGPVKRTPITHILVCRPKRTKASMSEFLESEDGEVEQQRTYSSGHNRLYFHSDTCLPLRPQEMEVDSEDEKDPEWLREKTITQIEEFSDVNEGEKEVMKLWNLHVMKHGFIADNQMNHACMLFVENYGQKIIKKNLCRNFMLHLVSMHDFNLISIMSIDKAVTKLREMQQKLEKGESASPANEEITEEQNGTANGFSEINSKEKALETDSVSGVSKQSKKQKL
Assay: Methyl transferase scintillation proximity assay
Type: biochemical
Details: average of two measurements, read-out: MTases Inhibition (%)
Property Name: inhibition at 10 µM (%)

1) Cc1c(NC(=O)c2cc(C(N)=O)nc3cc(F)ccc23)c(C(F)(F)F)nn1Cc1ccc(C(C)(C)C)cc1 : 3
2) Cc1nnc2c3ccccc3c(N[C@@H](C)[C@H](c3ccccc3)N(C)C)nn12 : 5
3) Cc1c(NC(=O)c2cc(C(N)=O)nc3cc(F)ccc23)c(C(F)(F)F)nn1Cc1ccc(C#N)cc1 : -4
4) CO[C@H]1CNC[C@@H](OCC2CCC(F)(F)CC2)[C@@H]1Nc1ncc(-c2cncc(C)c2)c2cc(C)c(=O)[nH]c12 : 1
5) CN1C[C@H](Nc2cnn(C)c(=O)c2Br)C[C@H](c2ccccc2)C1 : -1
6) CN(C)CCCOc1ccc(-c2cc(NCCCn3cccn3)nc(S(C)(=O)=O)n2)cc1 : 6
7) COc1cc(Cl)c(C(=O)N[C@@H](CN[C@H]2CC[C@@H](N)CC2)Cc2ccc(C#N)cc2)cc1-c1ccc(CN[C@H](C)c2ccc(C)cc2)o1 : 19

====

Molecular target: BRD4(1) (Homo sapiens, UniProt O60885)
Experiment: BROMOscan ligand-binding assay
pKd: −log10 of the molar value.
Property Name: pKd

1) CCCS(=O)(=O)c1nc(NC2CC2)cc(-c2ccc3c(ccn3C3CC(C)(C)NC(C)(C)C3)c2)n1 : 4.68
2) CCC(=O)N1CCOc2c(cc(-c3ccc(OC)c(OC)c3)cc2OCC2CCCN(C)C2)C1 (centres unmarked) : 5.54
3) CCCOc1ccn2c(C(C)=O)cc(-c3ccccc3S(C)(=O)=O)c2c1 : 4.13
4) COc1ccc(CCc2nc3cc(-c4c(C)noc4C)ccc3n2C[C@H](C)N2CCOCC2)cc1Cl : 5.96

====

Target: UniProt P51531
Assay: BROMOscan ligand-binding assay
Conditions: KD, SMARCA2
pKd: −log10 of the molar value.
Property Name: pKd

1) O=C(O)c1ccccc1O : 3.60

====

Biological target: BRD3(2) (Homo sapiens)
Sequence (Q15059 306-415 limits assumed): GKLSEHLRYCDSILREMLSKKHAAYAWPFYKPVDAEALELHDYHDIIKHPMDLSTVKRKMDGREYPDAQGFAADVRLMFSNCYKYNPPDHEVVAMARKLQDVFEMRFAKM
Assay: BROMOscan ligand-binding assay
Conditions: BROMOscan, BRD3(2)
pKd: −log10 of the molar value.
Property Name: pKd

1) Cc1cc(=O)n(C)c2cc(N3C(=O)CC[C@H](NS(=O)(=O)CC(C)C)[C@H]3c3ccc(Cl)cc3)ccc12 : < 4.30
2) O=C(C=CN1[C@H]2CC[C@@H]1c1ncnc(NC3CC3)c1C2)c1ccccc1O [PFI-3 D1] : < 4.52

====

// values below are reported pKd
Target: BRD3(1,2) (Homo sapiens, UniProt Q15059)
Sequence (Q15059 24-416 limits assumed): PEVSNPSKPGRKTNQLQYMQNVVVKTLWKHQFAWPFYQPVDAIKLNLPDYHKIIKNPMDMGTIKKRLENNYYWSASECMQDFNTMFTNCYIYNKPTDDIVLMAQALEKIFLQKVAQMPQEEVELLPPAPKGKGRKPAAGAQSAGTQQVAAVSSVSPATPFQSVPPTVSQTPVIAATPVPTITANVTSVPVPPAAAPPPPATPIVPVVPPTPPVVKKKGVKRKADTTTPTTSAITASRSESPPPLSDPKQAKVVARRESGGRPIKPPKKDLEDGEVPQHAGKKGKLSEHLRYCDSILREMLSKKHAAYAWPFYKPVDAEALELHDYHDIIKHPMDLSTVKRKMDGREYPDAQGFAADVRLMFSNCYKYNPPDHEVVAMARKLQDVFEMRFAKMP
Experiment: BROMOscan ligand-binding assay
Conditions: KD, BROMOscan Gene Symbol BRD3(1,2)
pKd: −log10 of the molar value.
Property Name: pKd

1) CCC(=O)N1CCOc2c(cc(-c3ccc(OC)c(OC)c3)cc2OCC2CCCN(C)C2)C1 (centres unmarked) [I-CBP112] : 5.20
2) CCCOc1ccn2c(C(C)=O)cc(-c3ccccc3S(C)(=O)=O)c2c1 [GSK2801] : 4.77

====

Biological target: BRD4(fl) (Homo sapiens, UniProt O60885)
Assay: BROMOscan ligand-binding assay
pKd: −log10 of the molar value.
Property Name: pKd

1) CCCOc1ccn2c(C(C)=O)cc(-c3ccccc3S(C)(=O)=O)c2c1 : 4.39
2) COc1ccc(CCc2nc3cc(-c4c(C)noc4C)ccc3n2C[C@H](C)N2CCOCC2)cc1Cl : 6.23
3) CCCS(=O)(=O)c1nc(NC2CC2)cc(-c2ccc3c(ccn3C3CC(C)(C)NC(C)(C)C3)c2)n1 : 4.89
4) CCC(=O)N1CCOc2c(cc(-c3ccc(OC)c(OC)c3)cc2OCC2CCCN(C)C2)C1 (centres unmarked) : 5.54

====

// values below are reported Kd
Molecular target: BRD4(1,2) (Homo sapiens)
Test: BROMOscan ligand-binding assay
Property Name: Kd (µM)

1. CCCOc1ccn2c(C(C)=O)cc(-c3ccccc3S(C)(=O)=O)c2c1 [GSK2801] : 65
2. COc1ccc(CCc2nc3cc(-c4c(C)noc4C)ccc3n2C[C@H](C)N2CCOCC2)cc1Cl [SGC-CBP30] : 3.4
3. CCCS(=O)(=O)c1nc(NC2CC2)cc(-c2ccc3c(ccn3C3CC(C)(C)NC(C)(C)C3)c2)n1 [NVS-CECR2-1] : 12
4. CCC(=O)N1CCOc2c(cc(-c3ccc(OC)c(OC)c3)cc2OCC2CCCN(C)C2)C1 (centres unmarked) [I-CBP112] : 11

====

// values below are reported inhibition at 10 µM
Target: PRMT4 (Homo sapiens, UniProt Q86X55)
Construct: purchased DiscoverX BROMOscan (bromodomains); SGC in-house methyltransferase panel
Sequence (Q86X55 whole entry): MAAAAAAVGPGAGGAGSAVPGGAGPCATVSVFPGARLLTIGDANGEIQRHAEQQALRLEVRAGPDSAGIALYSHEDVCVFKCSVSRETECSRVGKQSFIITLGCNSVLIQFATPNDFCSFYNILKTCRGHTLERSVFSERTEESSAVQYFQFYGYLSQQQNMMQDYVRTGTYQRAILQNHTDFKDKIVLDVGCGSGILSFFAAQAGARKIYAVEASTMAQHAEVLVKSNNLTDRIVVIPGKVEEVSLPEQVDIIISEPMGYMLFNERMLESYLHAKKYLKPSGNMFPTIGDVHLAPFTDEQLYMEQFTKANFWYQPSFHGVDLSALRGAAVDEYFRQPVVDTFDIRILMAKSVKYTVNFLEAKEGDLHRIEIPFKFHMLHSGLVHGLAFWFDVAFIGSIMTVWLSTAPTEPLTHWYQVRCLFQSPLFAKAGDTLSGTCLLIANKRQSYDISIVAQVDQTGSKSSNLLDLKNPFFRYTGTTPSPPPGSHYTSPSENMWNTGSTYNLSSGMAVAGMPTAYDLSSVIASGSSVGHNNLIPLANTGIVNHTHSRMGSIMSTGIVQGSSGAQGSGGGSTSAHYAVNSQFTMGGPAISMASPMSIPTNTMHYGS
Assay: Methyl transferase scintillation proximity assay
Type: biochemical
Settings: average of two measurements, read-out: MTases Inhibition (%)
Property Name: inhibition at 10 µM (%)

1. CO[C@H]1CNC[C@@H](OCC2CCC(F)(F)CC2)[C@@H]1Nc1ncc(-c2cncc(C)c2)c2cc(C)c(=O)[nH]c12 [GSK8814] : 1
2. COc1cc(Cl)c(C(=O)N[C@@H](CN[C@H]2CC[C@@H](N)CC2)Cc2ccc(C#N)cc2)cc1-c1ccc(CN[C@H](C)c2ccc(C)cc2)o1 [BAY-850] : 25
3. Cc1c(NC(=O)c2cc(C(N)=O)nc3cc(F)ccc23)c(C(F)(F)F)nn1Cc1ccc(C#N)cc1 [BAY-876] : 1
4. CN1C[C@H](Nc2cnn(C)c(=O)c2Br)C[C@H](c2ccccc2)C1 [GSK4027] : -2
5. Cc1c(NC(=O)c2cc(C(N)=O)nc3cc(F)ccc23)c(C(F)(F)F)nn1Cc1ccc(C(C)(C)C)cc1 [BAY-588] : 9
6. CN(C)CCCOc1ccc(-c2cc(NCCCn3cccn3)nc(S(C)(=O)=O)n2)cc1 [TP-238] : 3
7. Cc1nnc2c3ccccc3c(N[C@@H](C)[C@H](c3ccccc3)N(C)C)nn12 [L-Moses] : 6

====

Molecular target: PBRM1(2) (Homo sapiens)
Sequence (Q86U86 177-287 limits assumed): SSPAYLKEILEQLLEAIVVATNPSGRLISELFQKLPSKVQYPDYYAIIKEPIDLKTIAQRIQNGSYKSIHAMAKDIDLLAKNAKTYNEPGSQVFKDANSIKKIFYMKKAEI
Assay: BROMOscan ligand-binding assay
Settings: BROMOscan Gene Symbol PBRM1(2)
Property Name: Kd (µM)

1) Cc1noc(C)c1-c1ccc2c(c1)nc(CCc1ccccc1)n2CCN1CCOCC1 : 42
2) COc1ccc(CCc2nc3cc(-c4c(C)noc4C)ccc3n2CCN2CCOCC2)cc1 : 44

====

Biological target: BRD3(1) (Homo sapiens, UniProt Q15059)
Assay: BROMOscan ligand-binding assay
Conditions: BROMOscan Gene Symbol BRD3(1)
pKd: −log10 of the molar value.
Property Name: pKd

1. COc1ccc(CCc2nc3cc(-c4c(C)noc4C)ccc3n2CCN2CCOCC2)cc1 [CBP30-383] : 5.85
2. Cc1noc(C)c1-c1ccc2c(c1)nc(CCc1ccccc1)n2CCN1CCOCC1 [CBP30-298] : 6.02

meta.source: paper PMC6478789
